# experiment_description: yeast display, Sf9 membrane polyspecificity reagent, FACS + sequencing; frameworks hold sequencing errors

sequence_input: QVQLVESGGGLVQAGGSLRLSCAASGSTFRYNAMGWYRQAPGKERELVAAISSSGGSTRYADSVKGRFTISRDNANNTVYLQMNSLKPEDTAVYYCAVRFYDWRYYYWGQGTQVTVSS
polyreactivity (PSR sort gate): high polyreactivity
--
sequence_input: QVQLVESVGGLVQAGGSLRLSCAASGSTFLRYAMGWYRQAPGKERELVAAITASGGSTYYADSVKGRFTISRDNAKKSVYLQMNSLKPEDTAVYYCAADGRYIGKNSHDLWIYGYYYWGQGTQVTVSS
polyreactivity (PSR sort gate): low polyreactivity
--
sequence_input: QVQLVESGGGLVQAGGSLRLSCAAYGITFPSYTMGWYRQAPGKERELVATIRNGGSTYYADSVKGRFTISRDNAKNTVYLQMNSLKPEDTAVYYCAAKDTGYGYGVPRLDYWGQGTQVTVSS
polyreactivity (PSR sort gate): low polyreactivity
--
sequence_input: QVQLVESGGGLVQAGGSLRLSCAASGSIFHSNAMGWYRQAPGKERELVAAISASGGSTYYADSVKGRFTISRDNAKNTVYLQMNSLKPEDTAVYYCNAVSRYYRFSPYYYWGQGTQVTVSS
polyreactivity (PSR sort gate): high polyreactivity
--
sequence_input: QVQLVESGGGLDQAGGSLRLSCAASGRIFTYNTMGWYRQAPGKEREFVASITYSGSSTYYADSVKGRFTISRDNAKNTVYLEMNSLKPEVTAVYYCAHRYGYSDGDYWGQGTQVTVSS
polyreactivity (PSR sort gate): low polyreactivity
